# assay text: acute toxicity in the mouse (method of Miller and Tainter)
# assay setup: in vivo, oral application
assay readout: LD50

Value lookup for LD50; key = C=C1CC[C@@]2(OC1)O[C@H]1C[C@H]3[C@@H]4CC=C5C[C@@H](O)C[C@@H](O)[C@]5(C)[C@H]4[C@H](O)C[C@]3(C)[C@H]1[C@@H]2C > 6000 mg/kg

All figures here come from patent US3956491A.
